- System: H2122-FmC cells
- test: CyQUANT cell proliferation assay, FmC-transduced cells
- Assay type: cell-based
- protocol_conditions: Homo sapiens, 120h drug exposure
assay_endpoint: pIC50
A value of pIC50 is the negative decimal logarithm of a concentration given in moles per litre.

Q) Need pIC50 of `CCN1CCN(Cc2ccc(Nc3ncc(F)c(-c4cc(F)c5nc(C)n(C(C)C)c5c4)n3)nc2)CC1` , thanks.
A) 6.29
